// data source = the supplement of paper PMC10567573

Listing of entries alongside the reported protein stability index.
# Test Summary: protein stability index of a GFP-peptide fusion (GPS, HEK-293T) (PSI 1-6); higher = more stable;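 also: 24-mer peptide tiles fused after GFP, lentivirally expressed, FACS-sorted into six equal bins by GFP/DsRed ratio, decoded by Illumina sequencing, PSI is the read-weighted mean bin number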
# Stated Conditions: treatment: MLN4924 1 uM, 8 h; c terminus: a fixed tail appended
Reported Metric: protein stability index

monomer_sequence="LVLLRQMLLELTRRGQEPLSALLQ [BCL2L13]" measurement=2.62
monomer_sequence="LPVSSPEPPPALPPAADAPVTQIG [TRIM55]" measurement=5.33
monomer_sequence="NNKLKLQQKLVIDTVTEVTARMEM [CBY2]" measurement=2.89
monomer_sequence="EDQHRLYQQIKAGAYDFPSPEWDT [CAMK2D]" measurement=4.42
monomer_sequence="RHDSETEDMLWDDLLHGPECRSSV [PHTF1]" measurement=4.7
monomer_sequence="YQETISDVLNDAIFDEDHDEMVIV [GCH1]" measurement=4.02
monomer_sequence="TKRCFRLAPTFSNLLLQPTTNPHT [SMG5]" measurement=2.59
monomer_sequence="NGVTQKASAPTYPSLYSSYHQGCL [NANOGP8]" measurement=2.93
monomer_sequence="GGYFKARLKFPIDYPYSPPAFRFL [CDC34]" measurement=2.58
monomer_sequence="FFKGGGSSKSRAAPSPQEALVRLR [CHMP4C]" measurement=3.33
monomer_sequence="VRLLLEFKAEVDPLSDKGTTPLQL [ASB7]" measurement=2.31
monomer_sequence="WHPAENIIAIAATNNLYIFQDKVN [PPP2R2C]" measurement=2.44
monomer_sequence="DSHVSSCSEDWVGYQRKCYFISTV [CD69]" measurement=2.65
monomer_sequence="DGKLQLLQKLLSGRSREELDELTG [FEM1A]" measurement=3.29
monomer_sequence="LIYTLKNAEMKSAMRKLWSKKVSL [OR4A15]" measurement=2.04
monomer_sequence="YTYEKLLWTTSRVLKVLSVCSSNK [CTNNB1]" measurement=2.22
monomer_sequence="PLIKATVGLIRNLALCPANHAPLR [CTNNB1]" measurement=2.55
monomer_sequence="ATLICMAMQASKATKITLSAIYKW [FOXJ1]" measurement=2.92
monomer_sequence="LENVLDPDSFYELKSQPLPLRSSL [TFE3]" measurement=3.49
monomer_sequence="DTGHDSDKSDQSLPNASADSLGGS [TRAF3IP2]" measurement=5.51
monomer_sequence="LSTFSVPYFLFQHWATGYSKSSHP [SOAT1]" measurement=2.56
monomer_sequence="GSNGYILNKPALQAQPLRTTSTLA [EHMT1]" measurement=3.44
monomer_sequence="LDSCKQLTLAQGAGEEDPSGMVTI [SMG5]" measurement=4.49
monomer_sequence="MDLRTAVYNAARDGKLQLLQKLLS [FEM1A]" measurement=2.28
monomer_sequence="IHQETVSKNGNGLKNTPRFKRRRV [PCMTD2]" measurement=4.63
monomer_sequence="PFKQVAEMLSASRYPTISMVKPLL [ZBED1]" measurement=2.19
monomer_sequence="ELDAIIEEVDEDGSGTIDFEEFLV [TNNC2]" measurement=4.33
